Recorded values, source patent US20220135540A1.

# Protocol Details: Tissue distribution (liver versus plasma and other tissues)
# Type: in vivo
# Assay Setup: liver relative to plasma, heart and skin, liver vs plasma, kidney, lungs, read-out: concentration in the liver relative to plasma, kidney, lungs, heart, and skin
Readout Type: Kp

Query Cn1cc(C(=O)O)c2ccc(N3CCC(OCc4c(-c5c(Cl)cccc5Cl)noc4C4CC4)CC3)cc21 [Compound I] yields Kp of ~20
